Here, each record is paired with measured melting point data.

Example results:
molecule: CC(C)(C)[C@H]1C(O)=C(C2=NS(=O)(=O)c3c(N)cccc32)C(=O)N1Cc1ccc(F)cc1
melting point: 155 to 160 °C
//
molecule: Cc1cc(CN2C(=O)C(C3=NS(=O)(=O)c4c(CNS(C)(=O)=O)cccc43)=C(O)C2c2ccc(F)cc2)ccc1F (stereo not drawn)
melting point: > 250 °C
//
molecule: CC(C)(C)[C@H]1C(O)=C(C2=NS(=O)(=O)c3c(CNS(=O)(=O)C4CC4)cccc32)C(=O)N1Cc1ccc(F)cc1
melting point: 102 to 105 °C
//
molecule: O=C1C(C2=NS(=O)(=O)c3ccccc32)=C(O)[C@H](Cc2ccccc2)N1Cc1ccc(F)cc1
melting point: 85 to 92 °C
//
molecule: CC(C)(C)[C@H]1C(O)=C(C2=NS(=O)(=O)c3c2cccc3-c2ccc(=O)[nH]c2)C(=O)N1Cc1ccc(F)cc1
melting point: > 275 °C

Attention now shifts to the item below.
What measured melting point goes with CC(C)(C)[C@H]1C(O)=C(C2=NS(=O)(=O)c3c(NCC(N)=O)cccc32)C(=O)N1Cc1ccc(F)cc1.N ? > 250 °C
